# credit: paper PMC7700685

# Target: MTH1 (Homo sapiens, UniProt P36639)
# Protocol Description: Competitive binding against [3H]TH287 in live U251MG cells
# Design: endogenous in cells; host or cells: U251MG glioblastoma cells
# Condition Description: read-out: Ki (competitive binding)
pKi: −log10 of the molar value.
Experimental Readout: pKi

                                   compound  reading
0  CCN1CCC[C@H]1CNC(=O)c1c(O)c(Cl)cc(Cl)c1OC [Raclopride]   < 5.00

---

Each entry below carries its recorded IC50.
# Target: MTH1 (Homo sapiens)
# Protocol Description: MTH1 enzymatic inhibition assay (PPiLight inorganic pyrophosphate bioluminescent assay)
# Assay type: biochemical
# Condition Description: substrate dGTP 100 uM, recombinant MTH1 0.5 nM; read-out: IC50 inhibiting MTH1 hydrolase activity
Experimental Readout: IC50 (nM)

In [3]: df
Out[3]:
                                   compound               target  value_operator  reading
0            CNc1cc(-c2cccc(Cl)c2Cl)nc(N)n1  MTH1 (Homo sapiens)               =      2.2
1  CCN1CCC[C@H]1CNC(=O)c1c(O)c(Cl)cc(Cl)c1OC [Raclopride]  MTH1 (Homo sapiens)               >    10000

---

# Target: MTH1 (Homo sapiens)
# Protocol Description: Competitive binding against [3H]TH287 in live U251MG cells
# Parameters: endogenous in cells; host or cells: U251MG glioblastoma cells
pKi: −log10 of the molar value.
Experimental Readout: pKi

In [3]: df
Out[3]:
                 substance_smiles  experimental_readout  reading
0  CNc1cc(-c2cccc(Cl)c2Cl)nc(N)n1                   pKi     8.52
